// Kd lookup, one value per entry
- TESTED_SYSTEM: HLA-B*57:01
- ASSAY_PROCEDURE: IEDB peptide-MHC binding, purified MHC/competitive/radioactivity; filed as Kd, often an IC50 or EC50 that approximates it; bounds were set here for any values at or beyond the usual limits of such assays
- CONDITION_NOTES: source organism: Simian immunodeficiency virus

Examples from the recorded data:
LLHSTYFPC ... ≥ 50 µM
QAQLNAWGC ... ≥ 40 µM
LKSLYNTVC ... ≥ 30 µM

// moving on: another record for Kd
query: For SSCIAQDNC , what is its reported Kd?
result: ≥ 50 µM

###

- TESTED_SYSTEM: HLA-B*57:01
- ASSAY_PROCEDURE: IEDB peptide-MHC binding, purified MHC/competitive/radioactivity; filed as Kd, often an IC50 or EC50 that approximates it; bounds were set here for any values at or beyond the usual limits of such assays
- CONDITION_NOTES: source organism: Human immunodeficiency virus 2
ENDPOINT_NAME: Kd

query: For WIQLGLQKC , what is its reported Kd?
result: ≥ 10 µM

###

- TESTED_SYSTEM: HLA-B*57:01
- ASSAY_PROCEDURE: IEDB peptide-MHC binding, purified MHC/competitive/radioactivity; bounds were set here for any values at or beyond the usual limits of such assays
- CONDITION_NOTES: source organism: Homo sapiens
ENDPOINT_NAME: pIC50
The read-out pIC50 is expressed as -log10 of concentration in moles per litre.

TVAPFNPTV ... 6.00
ATIKLQSTV ... 7.00
KSNGTIIHV ... 5.00

query: For RTFHHGVRV , what is its reported pIC50?
result: 6.70

query: Another sequence: KIYEGQVEV
result: 5.00

query: Another sequence: VTTDIQVKV
result: 5.70

query: Another sequence: RARQLNYTI
result: 7.86

###

- TESTED_SYSTEM: HLA-B*57:01
- ASSAY_PROCEDURE: IEDB peptide-MHC binding, purified MHC/competitive/radioactivity; filed as Kd, often an IC50 or EC50 that approximates it; bounds were set here for any values at or beyond the usual limits of such assays
- CONDITION_NOTES: source organism: Homo sapiens
ENDPOINT_NAME: Kd

KVAKVEPAV ... ≥ 70 µM

// moving on: another record for Kd
query: For RVAGIHKKV , what is its reported Kd?
result: ≥ 70 µM

###

- TESTED_SYSTEM: HLA-B*57:01
- ASSAY_PROCEDURE: IEDB peptide-MHC binding, purified MHC/competitive/radioactivity; filed as Kd, often an IC50 or EC50 that approximates it; bounds were set here for any values at or beyond the usual limits of such assays
- CONDITION_NOTES: source organism: Mammarenavirus choriomeningitidis
ENDPOINT_NAME: Kd

MYGLKGPDI ... ≥ 50 µM

// moving on: another record for Kd
query: For MFEALPHII , what is its reported Kd?
result: ≥ 50 µM

###

// IC50 lookup, one value per entry
- TESTED_SYSTEM: HLA-B*57:01
- ASSAY_PROCEDURE: IEDB peptide-MHC binding, purified MHC/competitive/radioactivity; bounds were set here for any values at or beyond the usual limits of such assays
- CONDITION_NOTES: source organism: Mammarenavirus choriomeningitidis
Value expressed in nM; do not type the unit.

query: For ATCGIFALI , what is its reported IC50?
result: 200

query: Another sequence: IVSSLHLSI
result: 1000

query: Another sequence: SIFLHLVKI
result: 500
